Data provenance is ChEMBL document CHEMBL3098023.

Target: Prostaglandin G/H synthase 1 (Ovis aries, UniProt P05979)
Sequence (P05979 whole entry): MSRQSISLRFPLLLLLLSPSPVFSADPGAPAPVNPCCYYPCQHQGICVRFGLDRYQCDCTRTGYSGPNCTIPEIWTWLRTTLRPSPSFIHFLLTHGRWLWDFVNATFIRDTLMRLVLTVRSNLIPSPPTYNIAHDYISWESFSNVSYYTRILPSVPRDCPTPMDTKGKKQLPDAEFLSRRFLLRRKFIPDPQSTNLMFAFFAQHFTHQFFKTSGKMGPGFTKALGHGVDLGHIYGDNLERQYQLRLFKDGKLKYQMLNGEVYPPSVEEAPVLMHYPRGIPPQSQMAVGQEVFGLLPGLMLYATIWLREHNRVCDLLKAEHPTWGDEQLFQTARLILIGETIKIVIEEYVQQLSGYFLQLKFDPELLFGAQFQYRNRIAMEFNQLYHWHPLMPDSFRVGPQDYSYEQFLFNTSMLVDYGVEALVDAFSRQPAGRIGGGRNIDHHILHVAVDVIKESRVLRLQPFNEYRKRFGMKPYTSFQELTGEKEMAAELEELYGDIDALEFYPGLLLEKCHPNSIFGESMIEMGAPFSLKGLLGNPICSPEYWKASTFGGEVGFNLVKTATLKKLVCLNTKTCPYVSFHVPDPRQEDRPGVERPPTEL
OUTCOME MEASURE: pIC50
Scale: negative log10 of molar concentration, which is what pIC50 denotes.

Qu. Specify the recorded pIC50 for CC1=NN(c2cccc(Cl)c2)C(=O)/C1=C\c1cn(CCCOc2cc(O)c3c(=O)cc(-c4ccccc4)oc3c2)c2ccccc12 , system: Prostaglandin G/H synthase 1 (Ovis aries, UniProt P05979).
Ans. 3.93
